Data origin: patent US20220112288A1

The entries below are paired with their reported Kd.
system_name: T1, Recombinant human CD4 (R&D Systems, Cat. 10327-CD) (human, UniProt P01730 26-390, limits assumed)
T1 construct: Bought protein; also called huCD4
experiment: BLI (Octet Red384), purified antibody on anti-mouse Fc sensors, human CD4 100/50/25 nM, global 1:1 fit;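 note: antibodies loaded at 10 µg/mL, curves fitted across association and dissociation phases, with an unrelated mouse-derived antibody serving as internal reference control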
Kindly answer with a numeric value in nM, unit omitted.

Check the records and state Kd for 75110_08M20A (antibody, V domains shown, Tested as antibody purified from AlivaMab Mouse Kappa hybridoma (human V regions, kappa light chain, mouse Fc captured by anti-mouse Fc sensors)) VH: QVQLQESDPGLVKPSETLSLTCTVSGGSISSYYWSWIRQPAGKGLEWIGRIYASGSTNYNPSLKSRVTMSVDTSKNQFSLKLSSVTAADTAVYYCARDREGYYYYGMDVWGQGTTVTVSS VL: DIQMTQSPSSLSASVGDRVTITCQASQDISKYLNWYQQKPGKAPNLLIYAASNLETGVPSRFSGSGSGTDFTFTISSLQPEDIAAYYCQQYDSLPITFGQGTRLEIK 9.2

Check the records and state Kd for 75110_13P22A (antibody, V domains shown, Tested as antibody purified from AlivaMab Mouse Kappa hybridoma (human V regions, kappa light chain, mouse Fc captured by anti-mouse Fc sensors)) VH: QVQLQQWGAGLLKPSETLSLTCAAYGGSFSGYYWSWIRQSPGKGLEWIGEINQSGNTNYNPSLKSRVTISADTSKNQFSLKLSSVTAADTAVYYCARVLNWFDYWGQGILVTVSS VL: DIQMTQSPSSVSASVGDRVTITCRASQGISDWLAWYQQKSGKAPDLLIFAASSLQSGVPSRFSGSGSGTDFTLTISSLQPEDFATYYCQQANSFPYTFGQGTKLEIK 14

Check the records and state Kd for 75110_06G04A (antibody, V domains shown, Tested as antibody purified from AlivaMab Mouse Kappa hybridoma (human V regions, kappa light chain, mouse Fc captured by anti-mouse Fc sensors)) VH: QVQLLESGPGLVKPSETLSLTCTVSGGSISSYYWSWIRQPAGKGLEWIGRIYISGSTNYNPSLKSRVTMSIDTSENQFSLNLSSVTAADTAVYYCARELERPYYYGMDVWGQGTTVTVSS VL: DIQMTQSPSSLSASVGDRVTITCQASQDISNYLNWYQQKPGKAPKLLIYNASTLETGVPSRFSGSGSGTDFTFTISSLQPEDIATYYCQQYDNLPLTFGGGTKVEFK 6
